Tested on: HPAC cells
Assay: HPAC 3D proliferation assay (CellTiter-Glo)
Type: cell-based
Conditions: Homo sapiens, 168 h, 3D culture, 7 days, read-out: HPAC CTG IC50
pIC50: −log10 of the molar value.
# reported pIC50; entries follow
Endpoint Label: pIC50

Molecule: Cc1nc(N)cc(-c2nc3c4c(nc(OC[C@@H]5CCCN5C)nc4c2F)N([C@H](C)c2cccnc2N)CCO3)c1C(F)(F)F
Tested System: HPAC cells
Observed: 5.87

Molecule: C[C@H](c1cccnc1N)N1CCOc2nc(-c3cc(O)cc4cccc(F)c34)c(F)c3nc(OC[C@@]45CCCN4C[C@H](F)C5)nc1c23
Tested System: HPAC cells
Observed: 6.60

Molecule: Cc1c(F)c(N)nc(-c2nc3c4c(nc(OC[C@@]56CCCN5C[C@H](F)C6)nc4c2Cl)N([C@H](C)c2cccnc2N)CCO3)c1C(F)(F)F
Tested System: HPAC cells
Observed: 7.05

Molecule: Cc1nc(N)nc(-c2nc3c4c(nc(OC[C@@]56CCCN5C[C@H](F)C6)nc4c2F)N([C@H](C)c2cccnc2N)CCO3)c1C(F)(F)F
Tested System: HPAC cells
Observed: 6.48

Molecule: Cc1c(F)c(N)cc(-c2nc3c4c(nc(OC[C@@]56CCCN5C[C@]5(CC5(F)F)C6)nc4c2F)N([C@H](C)c2cccnc2N)CCO3)c1C(F)(F)F
Tested System: HPAC cells
Observed: 6.81

Molecule: Cc1c(F)c(N)cc(-c2nc3c4c(nc(OC[C@@]56CCCN5C[C@H](F)C6)nc4c2F)N([C@H](C)c2nccnc2N)CCO3)c1C(F)(F)F
Tested System: HPAC cells
Observed: 7.13

Molecule: Cc1c(F)c(N)nc(-c2nc3c4c(nc(OC[C@@]56CCCN5C[C@H](F)C6)nc4c2F)N([C@H](C)c2cccnc2N)CCO3)c1C(F)(F)F
Tested System: HPAC cells
Observed: 7.58

Molecule: Cc1cc(N)c(F)c(-c2nc3c4c(nc(OC[C@@]56CCCN5C[C@H](F)C6)nc4c2F)N([C@H](C)c2nccnc2N)CCO3)c1C(F)(F)F
Tested System: HPAC cells
Observed: 7.04

Molecule: Cc1c(F)c(N)cc(-c2nc3c4c(nc(OC[C@@H]5CC(F)(F)CN5C)nc4c2F)N([C@H](C)c2cccnc2N)CCO3)c1C(F)(F)F
Tested System: HPAC cells
Observed: 6.32

Molecule: C[C@H](c1cccnc1N)N1CCOc2nc(-c3cccc4sc(N)nc34)c(F)c3nc(OC[C@@]45CCCN4C[C@H](F)C5)nc1c23
Tested System: HPAC cells
Observed: 5.70

Molecule: Cc1c(F)c(N)c(F)c(-c2nc3c4c(nc(OC[C@@H]5CCCN5C)nc4c2F)N([C@H](C)c2cccnc2N)CCO3)c1C(F)(F)F
Tested System: HPAC cells
Observed: 7.15

Molecule: C#Cc1cccc2cc(O)cc(-c3nc4c5c(nc(OC[C@@]67CCCN6C[C@H](F)C7)nc5c3F)N([C@H](C)c3cccnc3N)CCO4)c12
Tested System: HPAC cells
Observed: 7.71

Molecule: Cc1c(F)c(N)cc(-c2nc3c4c(nc(OC[C@@H]5CC[C@H]6COCCN65)nc4c2F)N([C@H](C)c2cccnc2N)CCO3)c1C(F)(F)F
Tested System: HPAC cells
Observed: 7.52

Molecule: Cc1nc(N)cc(-c2nc3c4c(nc(OC[C@@]56CCCN5C[C@H](F)C6)nc4c2F)N([C@H](C)c2cccnc2N)CCO3)c1C(F)(F)F
Tested System: HPAC cells
Observed: 7.12

Molecule: C#Cc1cccc2cc(O)cc(-c3nc4c5c(nc(OCC67CCN6CC(F)(F)C7)nc5c3F)N([C@H](C)c3cccnc3N)CCO4)c12 (some centres unmarked)
Tested System: HPAC cells
Observed: 6.84

Molecule: Cc1c(F)c(N)cc(-c2nc3c4c(nc(OC[C@@]56CCCN5C[C@H](F)C6)nc4c2F)N([C@H](C)c2cccnc2N)CCO3)c1CC(F)F
Tested System: HPAC cells
Observed: 6.44

Molecule: C#Cc1cccc2cncc(-c3nc4c5c(nc(OC[C@@]67CCCN6C[C@H](F)C7)nc5c3F)N([C@H](C)c3cccnc3N)CCO4)c12
Tested System: HPAC cells
Observed: 7.25

====

Target: recombinant human mutant KRas G12V (SOS1-mediated nucleotide exchange) (Homo sapiens (Human), UniProt P01116, G12V)
Sequence (P01116-2 other isoform, or with tags, fused parts or gaps G12V): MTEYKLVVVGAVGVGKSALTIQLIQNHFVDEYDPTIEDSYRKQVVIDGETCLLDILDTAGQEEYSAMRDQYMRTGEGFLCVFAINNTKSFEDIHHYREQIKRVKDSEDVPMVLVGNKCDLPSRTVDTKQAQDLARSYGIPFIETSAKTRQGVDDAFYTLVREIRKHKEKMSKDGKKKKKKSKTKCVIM
Experiment: KRAS biochemical assay, BODIPY-GDP exchange TR-FRET (G12V-GDP HTRF)
pIC50: −log10 of the molar value.

Molecule: C#Cc1cccc2nc(N)cc(-c3nc4c5c(nc(OC[C@@]67CCCN6C[C@H](F)C7)nc5c3F)N([C@H](C)c3cccnc3N)CCO4)c12
pIC50: 10.22
--
Molecule: Cc1cc(N)c(Cl)c(-c2nc3c4c(nc(OC[C@@]56CCCN5C[C@H](F)C6)nc4c2F)N([C@H](C)c2cccnc2N)CCO3)c1C(F)(F)F (single isomer, unassigned) [Example 21a]
pIC50: 8.72
--
Molecule: Cc1c(F)c(N)cc(-c2nc3c4c(nc(OC[C@@]56CCCN5C[C@H](F)C6)nc4c2F)N([C@H](C)c2cncnc2N)CCO3)c1C(F)(F)F
pIC50: 9.96
--
Molecule: Cc1c(F)c(N)nc(-c2nc3c4c(nc(OC[C@@]56CCCN5C[C@H](F)C6)nc4c2Cl)N([C@H](C)c2cccnc2N)CCO3)c1C(F)(F)F
pIC50: 9.62
--
Molecule: Cc1c(F)c(N)c(F)c(-c2nc3c4c(nc(OC[C@@]56CCCN5C[C@H](F)C6)nc4c2Cl)N([C@H](C)c2cccnc2N)CCO3)c1C(F)(F)F (atropisomer, axis not shown; (aS)) [Example 629a]
pIC50: 10.16
--
Molecule: C#Cc1cccc2cc(O)cc(-c3nc4c5c(nc(OC[C@@]67CCCN6C[C@H](F)C7)nc5c3F)N([C@H](C)c3cccnc3N)CCO4)c12
pIC50: 10.40
--
Molecule: Cc1c(F)c(N)cc(-c2nc3c4c(nc(OC[C@@]56CCCN5C[C@]5(CC5(F)F)C6)nc4c2F)N([C@H](C)c2cccnc2N)CCO3)c1C(F)(F)F
pIC50: 9.57
--
Molecule: C[C@H](c1cccnc1N)N1CCOc2nc(-c3c(C(F)(F)F)ccc(N)c3Cl)c(F)c3nc(OC[C@@]45CCCN4C[C@H](F)C5)nc1c23 (atropisomer, axis not shown; (aS)) [Example 622a]
pIC50: 9.72
--
Molecule: C[C@H](c1cccnc1N)N1CCOc2nc(-c3c(C(F)(F)F)ccc(N)c3Cl)c(F)c3nc(OC[C@@]45CCCN4C[C@H](F)C5)nc1c23 (single isomer, unassigned) [Example 622b]
pIC50: 8.64
--
Molecule: C[C@H](c1cccnc1N)N1CCOc2nc(-c3cc(N)nc4ccccc34)c(F)c3nc(OC[C@@]45CCCN4C[C@H](F)C5)nc1c23
pIC50: 8.66
--
Molecule: Cc1nc(N)c(Cl)c(-c2nc3c4c(nc(OC[C@@]56CCCN5C[C@H](F)C6)nc4c2F)N([C@H](C)c2cccnc2N)CCO3)c1C(F)(F)F (single isomer, unassigned) [Example 601a]
pIC50: 10.15
--
Molecule: Cc1nc(N)cc(-c2nc3c4c(nc(OC[C@@]56CCCN5C[C@H](F)C6)nc4c2F)N([C@H](C)c2cccnc2N)CCO3)c1C(F)(F)F
pIC50: 9.77
--
Molecule: Cc1nc(N)cc(-c2nc3c4c(nc(OC[C@@H]5CCCN5C)nc4c2F)N([C@H](C)c2cccnc2N)CCO3)c1C(F)(F)F
pIC50: 9.36
--
Molecule: C#Cc1cccc2cncc(-c3nc4c5c(nc(OC[C@@]67CCCN6C[C@H](F)C7)nc5c3F)N([C@H](C)c3cccnc3N)CCO4)c12
pIC50: 9.62
--
Molecule: C#Cc1cccc2cc(N)cc(-c3nc4c5c(nc(OC[C@@]67CCCN6C[C@H](F)C7)nc5c3F)N([C@H](C)c3nccnc3N)CCO4)c12
pIC50: 10.05
--
Molecule: Cc1c(F)c(N)nc(-c2nc3c4c(nc(OC[C@@]56CCCN5C[C@H](F)C6)nc4c2F)N([C@H](C)c2cc(F)cnc2N)CCO3)c1C(F)(F)F
pIC50: 9.68
--
Molecule: C[C@H](c1cccnc1N)N1CCOc2nc(-c3cc(O)cc4ccccc34)c(F)c3nc(OC[C@@]45CCCN4C[C@H](F)C5)nc1c23
pIC50: 9.96
--
Molecule: Cc1cc(N)nc(-c2nc3c4c(nc(OC[C@@]56CCCN5C[C@H](F)C6)nc4c2F)N([C@H](C)c2cccnc2N)CCO3)c1C(F)(F)F
pIC50: 9.68
--
Molecule: Cc1c(F)c(N)nc(-c2nc3c4c(nc(OC[C@@]56CCCN5C[C@H](F)C6)nc4c2F)N([C@H](C)c2cncnc2N)CCO3)c1C(F)(F)F
pIC50: 9.62
--
Molecule: Cc1c(F)c(N)nc(-c2nc3c4c(nc(OC[C@@]56CCCN5C[C@H](F)C6)nc4c2F)N([C@H](C)c2nccnc2N)CCO3)c1C(F)(F)F
pIC50: 9.49
--
Molecule: Cc1cc(N)cc(-c2nc3c4c(nc(OC[C@@]56CCCN5C[C@H](F)C6)nc4c2F)N([C@H](C)c2cccnc2N)CCO3)c1C(F)(F)F
pIC50: 10.10
--
Molecule: Cc1nc(N)c(Cl)c(-c2nc3c4c(nc(OC[C@@]56CCCN5C[C@H](F)C6)nc4c2F)N([C@H](C)c2cccnc2N)CCO3)c1C(F)(F)F (single isomer, unassigned) [Example 601b]
pIC50: 9.12
